- System: RIPK4
- details: concentration: 1 μM, replicates: in singlicate; n = 1
experimentalReadout: %Inh (%)
Could you give me the number in %? Just the number is fine.

Past entries and their recorded results:
{"compound": "Cc1ccc(C(=O)Nc2ccc(Nc3ccnc4cc(-c5nccs5)ccc34)cc2O)cc1.Cl", "%Inh (%)": 13}
{"compound": "COc1cccc(C(=O)Nc2cccc(Oc3ccc4nc(NC(=O)C5CC5)cn4n3)c2)c1", "%Inh (%)": 0}
{"compound": "Cl.NC(=O)c1cccc(Nc2nccc(Nc3ccc(Oc4c(Cl)cccc4Cl)c(Cl)c3)n2)c1", "%Inh (%)": 0}

## Task Param readout= %Inh; system= RIPK4; entry= CN(C)S(=O)(=O)c1cc(-c2ccc3nccc(-c4cccc(S(N)(=O)=O)c4)c3c2)cnc1N ; returns value.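 Also: KINOMEscan kinase panel screen.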
## Result 9

## Task Also COC(=O)Nc1nc2ccc(Oc3ccc(NC(=O)Nc4cc(C(F)(F)F)ccc4F)cc3)cc2n1C.Cl ?
## Result 0

## Task Also Fc1ccc(-c2ncn(C3CCNCC3)c2-c2ccnc(Oc3ccc(-c4ccccc4)cc3)n2)cc1 ?
## Result 34

## Task Also COc1cc2c(cc1OCCN1CCNCC1)ncc1c3ccc(C#N)cc3[nH]c21 ?
## Result 41

## Task Also Cl.Cl.NCC(C(=O)Nc1cc(Br)c(-c2ccnc3[nH]ccc23)s1)c1ccccc1 (centres unmarked) ?
## Result 27
